molecular target: DnaK (Escherichia coli); test: DnaK Inhibition Assay (DnaK induced refolding of denatured firefly luciferase); type: biochemical, E. coli; settings: DnaK 200 nM, DnaJ 100 nM, GrpE 400 nM, read-out: DnaK IC50
Non-standard residues stand in square brackets, D forms with d. Residues, ends and D or L forms follow the SMILES beside them. *: point of attachment. Phe(4-F) = N[C@@H](Cc1ccc(F)cc1)C(=O)O; NH(CH2)3Ph = c1ccc(CCCN*)cc1; 2Pyrimidinyl = c1cnc(*)nc1; Orn = NCCC[C@H](N)C(=O)O; Bn = c1ccc(C*)cc1
IC50 reference
Your answer should be a plain number; it is taken to be in µM.

Some solved entries appear below for comparison.
>>> result("CC(=O)N[C@@H](Cc1ccc(F)cc1)C(=O)N[C@@H](CC(C)C)C(=O)N1CCC[C@H]1C(=O)O [Structure 11] (Ac-[Phe(4-F)]-Leu-Pro-OH)")
69
>>> result("CC(=O)N[C@@H](Cc1ccc(OCc2ccccc2)cc1)C(=O)N[C@@H](CC(C)C)C(=O)N1CCC[C@H]1C(=O)N[C@@H](CCCNc1ncccn1)C(=O)N1CCC[C@H]1C(=O)NCCCc1ccccc1 [Structure 21] (Ac-Y(Bn)LP[Orn](2Pyrimidinyl)P-{NH(CH2)3Ph})")
22
>>> result("CCC(C)[C@H](NC(C)=O)C(=O)N[C@@H](CCCCNC(=O)OCc1ccccc1)C(=O)N1CCC[C@H]1C(=O)O (stereo partly shown) [Structure 22, Ac-Ile-Lys(Cbz)-Pro-OH]")
14

Then this molecule:
**Q:** If you can, please state the reported IC50 value of CCC(C)[C@H](NC(=O)[C@H](Cc1ccc(O)cc1)NC(C)=O)C(=O)N[C@@H](CO)C(=O)O (stereo partly drawn) [Structure 24, Ac-Tyr-Ile-Ser-OH] .
**A:** 240

###

system: E. coli (ATCC 25922)
Non-standard residues stand in square brackets, D forms with d. Residues, ends and D or L forms follow the SMILES beside them. *: point of attachment. Octanoyl = CCCCCCCC(=O)*; Piperidide = C1CCN(*)CC1; Bn = c1ccc(C*)cc1
Readout Kind: MIC (µg/mL)
Your answer should be a plain number; it is taken to be in µg/mL.

>>> result("CCCCCCCC(=O)N[C@@H](Cc1ccc(OCc2ccccc2)cc1)C(=O)N[C@@H](CC(C)C)C(=O)N1CCC[C@H]1C(=O)N[C@H](CCCNC(=N)N)C(=O)N1CCCCC1 [Structure 28] (Octanoyl-Y(Bn)LP[dR]-Piperidide)")
32

Then this compound:
**Q:** If you can, please state the reported MIC value of `CCCCCCCC(=O)N[C@@H](Cc1ccc(OCc2ccccc2)cc1)C(=O)N[C@@H](CC(C)C)C(=O)N1CCC[C@H]1C(=O)NCCNC(=N)N` .
**A:** 32

###

target: DnaK (Escherichia coli, UniProt P0A6Y8); test: DnaK Inhibition Assay (DnaK induced refolding of denatured firefly luciferase); assay type: biochemical, E. coli; details: DnaK 200 nM, DnaJ 100 nM, GrpE 400 nM, read-out: DnaK IC50(μg/ml) (converted)
Sequence (P0A6Y8 2-638): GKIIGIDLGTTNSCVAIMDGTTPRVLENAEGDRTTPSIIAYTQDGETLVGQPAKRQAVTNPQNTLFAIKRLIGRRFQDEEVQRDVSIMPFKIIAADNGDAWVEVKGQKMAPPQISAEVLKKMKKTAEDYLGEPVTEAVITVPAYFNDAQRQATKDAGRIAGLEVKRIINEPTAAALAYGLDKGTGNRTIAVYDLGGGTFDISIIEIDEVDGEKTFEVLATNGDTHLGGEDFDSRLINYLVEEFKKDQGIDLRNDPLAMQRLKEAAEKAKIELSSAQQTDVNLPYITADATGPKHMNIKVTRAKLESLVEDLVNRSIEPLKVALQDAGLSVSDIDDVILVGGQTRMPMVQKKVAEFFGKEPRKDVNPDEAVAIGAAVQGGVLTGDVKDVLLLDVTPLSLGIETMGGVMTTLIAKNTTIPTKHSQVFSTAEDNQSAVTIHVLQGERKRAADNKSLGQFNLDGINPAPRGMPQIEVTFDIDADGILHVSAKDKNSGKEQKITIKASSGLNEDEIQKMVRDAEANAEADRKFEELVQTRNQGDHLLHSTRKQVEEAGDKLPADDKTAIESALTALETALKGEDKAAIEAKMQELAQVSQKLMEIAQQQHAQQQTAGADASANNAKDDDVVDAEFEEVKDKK
Non-standard residues stand in square brackets, D forms with d. Residues, ends and D or L forms follow the SMILES beside them. *: point of attachment. Phe(4-NH2) = Nc1ccc(C[C@H](N)C(=O)O)cc1; Phe(4-F) = N[C@@H](Cc1ccc(F)cc1)C(=O)O; 2Nal = N[C@@H](Cc1ccc2ccccc2c1)C(=O)O; Hydrocinnamoyl = O=C(CCc1ccccc1)*; NH(CH2)3Ph = c1ccc(CCCN*)cc1; 2Pyrimidinyl = c1cnc(*)nc1; Orn = NCCC[C@H](N)C(=O)O; Piperidide = C1CCN(*)CC1; Cbz = O=C(OCc1ccccc1)*; Boc = CC(C)(C)OC(=O)*; Bn = c1ccc(C*)cc1
IC50 reference
Your answer should be a plain number; it is taken to be in µM.

Some solved entries appear below for comparison.
>>> result("CCC(C)[C@H](NC(=O)[C@H](Cc1ccc(O)cc1)NC(C)=O)C(=O)N[C@@H](CO)C(=O)O (stereo partly drawn) [Structure 24, Ac-Tyr-Ile-Ser-OH]")
309
>>> result("COC(=O)[C@@H]1CCCN1C(=O)[C@H](CC(C)C)NC(=O)[C@H](Cc1ccc(NC(=O)OCc2ccccc2)cc1)NC(C)=O [Structure 6, Ac-4-(NHCbz)Phe-Leu-Pro-OMe] (Ac-[Phe(4-NH2)](Cbz)-Leu-Pro-OMe)")
420
>>> result("CC(=O)N[C@@H](Cc1ccc(OCc2ccccc2)cc1)C(=O)N[C@@H](CC(C)C)C(=O)N1CCC[C@H]1C(=O)N[C@@H](CCCNc1ncccn1)C(=O)N1CCC[C@H]1C(=O)NCCCc1ccccc1 [Structure 21] (Ac-Y(Bn)LP[Orn](2Pyrimidinyl)P-{NH(CH2)3Ph})")
22.6
>>> result("CC(C)C[C@H](NC(=O)CCc1ccccc1)C(=O)N1CCC[C@H]1C(=O)N[C@@H](CCCNC(=N)N)C(=O)N1CCCCC1 [Structure 13, Ph(CH2)2C(O)-Leu-Pro-Arg-N(CH2)5] (Hydrocinnamoyl-Leu-Pro-Arg-Piperidide)")
29.1
>>> result("CC(=O)N[C@@H](Cc1ccc2ccccc2c1)C(=O)N[C@@H](CC(C)C)C(=O)N1CCC[C@H]1C(=O)O [Structure 9] (Ac-[2Nal]-Leu-Pro-OH)")
282

**Q:** If you can, please state the reported IC50 value of CC(=O)N[C@@H](Cc1ccc(OCc2ccccc2)cc1)C(=O)N[C@@H](CC(C)C)C(=O)N1CCC[C@H]1C(=O)N[C@@H](CCCNC(=O)OC(C)(C)C)C(=O)N1CCC[C@H]1C(=O)NCCCc1ccccc1 [Structure 17] (Ac-Y(Bn)LP[Orn](Boc)P-{NH(CH2)3Ph}) .
**A:** 20

**Q:** Query CCC(C)[C@H](NC(C)=O)C(=O)N[C@@H](CCCCNC(=O)OCc1ccccc1)C(=O)N1CCC[C@H]1C(=O)O (stereo partly drawn) [Structure 22, Ac-Ile-Lys(Cbz)-Pro-OH] next
**A:** 50.7

**Q:** Query CC(C)C[C@H](NC(=O)[C@H](Cc1ccc(O)cc1)NC(=O)OC(C)(C)C)C(=O)N1CCC[C@H]1C(=O)N[C@@H](CCCNC(=N)N)C(=O)N1CCC[C@H]1C(=O)NCCCc1ccccc1 [Structure 12, Boc-Tyr-Leu-Pro-Arg-Pro-NH(CH2)3Ph] (Boc-YLPRP-{NH(CH2)3Ph}) next
**A:** 12.8

**Q:** Query COC(=O)[C@@H]1CCCN1C(=O)[C@H](CC(C)C)NC(=O)[C@H](Cc1ccc(F)cc1)NC(C)=O [Structure 10, Ac(4-F)Phe-Leu-Pro-OMe] (Ac-[Phe(4-F)]-Leu-Pro-OMe) next
**A:** 127
